- System: RARg homodimer (NR concentration 270 nM)
- Procedure details: PBM binding z-score (relative to random genomic background probes); higher = stronger binding; sequences stand for … in GC…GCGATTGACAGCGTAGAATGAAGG
Can you tell me PBM binding z-score for the items I'm about to list?
Give bare numbers.

I'm hoping you can list PBM binding z-score for every sequence here, please.
1. CCGAGTAGGTCATGGGGCATTCAGGCAACGGTGA
2. TCTTGTAGATCAAGCTGGTTAAGAAAGCCTGAGT
3. TAGCCTAGGTCAGATCGCGCCAGTATACGCTATA

Resp:
4.44
-0.528
3.2

###

- Test system: FXR:RXRa (NR concentration 270 nM, RXRa partner concentration 90 nM)
- Procedure details: PBM binding z-score (relative to random genomic background probes); higher = stronger binding; sequences stand for … in GC…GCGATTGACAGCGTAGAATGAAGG
Can you tell me PBM binding z-score for the items I'm about to list?
Answers are plain numbers.

I'm hoping you can list PBM binding z-score for every sequence here, please.
1. CTAACTAGGTCAAGGACAGTGAATCTCCGCACGC
2. CCTGCTAGGTCAATGGTCGGCTAAAGCAGCTCGC
3. TCACATAGGTAAAAGGTGAAAGTCGGTGTGGTAA
4. CTTTACGGGTCACTGACAGGTTATAGCATTTGGA
5. CGTCCAAGATCATAGGAGGTCAGTGAAGACAGAT

Resp:
1: 3.07; 2: 2.91; 3: 1.8; 4: 5.62; 5: 1.56

I'm hoping you can list PBM binding z-score for every sequence here, please.
1. CGTCCAAGGTTAAAGGTCAGTGAAGAGATGACGG
2. TCTGCTACGTCAGTTGGTCAGCTAACGAGCTGCC
3. CCTCGGAGGAAAGAAGGTCAGAGCTGTCCGCTTT
4. TCTCGGCGGACACGAAAGGTCAGAGCTCGACATC
5. TAGCCGAGGTCATGCGGGCCAGTATAGTGTCGGC

Resp:
[6.23, -1.7, 0.768, 1.93, 7.46]

I'm hoping you can list PBM binding z-score for every sequence here, please.
1. ATATGTAGGTTAGCTGGGCTCATTCAGACTAGGC
2. GCGACTGGGGCAACGCAGGTTACCATAAGGTTGG
3. AGTCTAAGTTCAGGACGAGGTAACGTAAAGCACG
4. AGAATGAGTTTATTAAGATCAGGGAATTGCGGTC

Resp:
[-0.0917, 0.326, 1.61, -0.0233]

###

- Tested on: RARb:RXRa (NR concentration 270 nM, RXRa partner concentration 90 nM)
- Procedure details: PBM binding z-score (relative to random genomic background probes); higher = stronger binding; sequences stand for … in GC…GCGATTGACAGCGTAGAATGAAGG
Endpoint label: PBM binding z-score
Answers are plain numbers.

Answered cases to consult:
Req: Quick one: PBM binding z-score of CGAACGAGGGCATGAGTTGAGAGCAAATGCCGAT ?
Resp: 2.05

Req: Quick one: PBM binding z-score of AGAAAGAGGTTATTAAGATCAGGGAATTGCGGTC ?
Resp: 1.97

Req: Quick one: PBM binding z-score of TCGAGTAGGTTAGGGGTATTCAGAATGGCGTCGA ?
Resp: 0.589

Req: Quick one: PBM binding z-score of CACGAAAGGTCGTGCTCAGGTGAGTATACCAAAC ?
Resp: 4.13

Req: Quick one: PBM binding z-score of CCTACTGGGCCAAAGGTCATTGTTTCCAATGCTC ?
Resp: 4.16

I'm hoping you can list PBM binding z-score for every sequence here, please.
1. CATACAGGGTCAGCTAGGCCTGAGTAGGGACGGC
2. GCGACTGGGGCAAAGCAGGTTACCATCAGGTTGG
3. TCATATAGGTAAAAGGAGAAAGTCGGTGTGGTAA
4. TAGCGTAGGTCATGGGCCAGTATACCACGCGAAC
5. GCAGACAGGTGAAACGCAGGTAACACAGGGTGGC
6. CCGACTGGGGCAGAATGGTTACCATACCATCCGG

Resp:
3.86
0.889
0.195
3.9
0.622
0.0446

###

- Test system: RARg homodimer (NR concentration 270 nM)
- Procedure details: PBM binding z-score (relative to random genomic background probes); higher = stronger binding; sequences stand for … in GC…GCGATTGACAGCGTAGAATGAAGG
Can you tell me PBM binding z-score for the items I'm about to list?
Give bare numbers.

Req: Quick one: PBM binding z-score of GCTAGCAGGCCAGTTGGGTCACTCAATGACGGGC ?
Resp: 0.963

Req: Quick one: PBM binding z-score of AGAATGAGGTTACCAAAGATCAGGGCAACGCTTG ?
Resp: 1.97

Req: Quick one: PBM binding z-score of CAAACTAGGTCGCCGGAAGGTCAAAGTCCGCATG ?
Resp: 4.32

Further cases:
Req: Quick one: PBM binding z-score of CGTCAAAGTTCAACTAAGGAAACGTAAAGCACGC ?
Resp: 6.45

###

- Test system: PPARg:RXRa (NR concentration 180 nM, RXRa partner concentration 90 nM)
- Procedure details: PBM binding z-score (relative to random genomic background probes); higher = stronger binding; sequences stand for … in GC…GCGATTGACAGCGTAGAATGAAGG
Endpoint label: PBM binding z-score
Answers are plain numbers.

Answered cases to consult:
Req: Quick one: PBM binding z-score of AGTCAAAGTTGACTAGGTAACGTAAGATTCAGCT ?
Resp: 2.01

Req: Quick one: PBM binding z-score of ACTCGGAGGACAAAGGTCTGAGCTACGCCAGTGA ?
Resp: 1.95

I'm hoping you can list PBM binding z-score for every sequence here, please.
1. CCGAGTAGGTTATGAGGCATTCAGGCAACGGTGA
2. CGTCCAAGGTCAAAGGTGAGTGAAGAGATGACGG
3. CGTCAAAGTTCAAGGTAACGTGACAGAAAGCAGC
4. GCTTGTAGGTCAAGGTTAAGAAAGACTAAGCTAA
5. TCATATAGGTAAAAGGTGAAAGTGGGTGTGGTAA
6. CGTCCAAGGTCAATGCTAGGTCAGTGAAAGCATT
7. TCTGCTAGGTCAGTTGGTAAGCTAACGAGCTGCC

Resp:
1.3
8.58
4.02
9.1
9.05
4.02
0.118

I'm hoping you can list PBM binding z-score for every sequence here, please.
1. CATACAGGGTCAGCTAGGCCCGAGTAGGGACGGC
2. TCATATAGGTAAACAGGTAAAAGTCCGTAAGTTA
3. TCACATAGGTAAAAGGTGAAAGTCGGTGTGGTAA

Resp:
[2.95, 2.49, 5.76]

###

- System: PPARg:RXRa 90nM:30nM, anti-RXR (NR concentration 90 nM, RXRa partner concentration 30 nM)
- Procedure details: PBM binding z-score (relative to random genomic background probes); higher = stronger binding; sequences stand for … in GC…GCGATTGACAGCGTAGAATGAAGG
Endpoint label: PBM binding z-score
Numbers only.

Answered cases to consult:
Req: Quick one: PBM binding z-score of TCTTGTAGATCAAAAGAGGTTAAGAAAGTGCGCT ?
Resp: 2.16

Req: Quick one: PBM binding z-score of CCGAGTAGGTTATGGGGCATTGAGGCAACGGTGA ?
Resp: 4.57

Req: Quick one: PBM binding z-score of TCTCGGAGGACACGAAGGTCAGACCTTTCCAGAG ?
Resp: 2.04

I'm hoping you can list PBM binding z-score for every sequence here, please.
1. ATCGAAAGGTCGTGAGGGGAGTATACAGAAAGGC
2. CCGACTGGGGCAGAAAGGTTACCTTACCATCCGG
3. CTCGAAAGGTCGGTTGGGGTGAGTATACGGATAA
4. ACTCGGAGGACAAAGGTCAGAGATACGCCAGTGA

Resp:
3.1
1.91
0.958
7.24

I'm hoping you can list PBM binding z-score for every sequence here, please.
1. AGTCAAAGTTCATCTAGATAACGTAAGATATGCT
2. GCTAGTTGGTCAGTAAAAGGTCACTCACCGGTCG
3. GCTTACGGGTCAAAGGTTGTAGCATGAATAGAAT
4. AGAACGAGGGCACGCTGAGTTGATAGCCGAGTAG
5. ACTATTAGATGAGACGAGGGCAACCGATAGGTTG

Resp:
[5.43, 3.49, 9.31, 0.936, 0.603]

I'm hoping you can list PBM binding z-score for every sequence here, please.
1. ACTAGCAGGCCAAGTTTGGGTAACTCAAACAAAG
2. ATCTCTAGGTAAAGATAGTTCAGAGAATGCAAAT
3. ATATGTAGGTTAAGGATCATTCAGGTTGGTTCGC

Resp:
[-0.687, 0.609, 8.34]
